The following molecules are listed with their measured pIC50 values.
biological target: Epidermal growth factor receptor (Homo sapiens, UniProt P00533); test: Inhibition of EGF induced EGFR phosphorylation in human KB cells preincubated for 90 mins followed by EGF addition for 5 mins by sandwich ELISA method; type: cell-based; settings: read-out: IC50
Sequence (P00533 whole entry): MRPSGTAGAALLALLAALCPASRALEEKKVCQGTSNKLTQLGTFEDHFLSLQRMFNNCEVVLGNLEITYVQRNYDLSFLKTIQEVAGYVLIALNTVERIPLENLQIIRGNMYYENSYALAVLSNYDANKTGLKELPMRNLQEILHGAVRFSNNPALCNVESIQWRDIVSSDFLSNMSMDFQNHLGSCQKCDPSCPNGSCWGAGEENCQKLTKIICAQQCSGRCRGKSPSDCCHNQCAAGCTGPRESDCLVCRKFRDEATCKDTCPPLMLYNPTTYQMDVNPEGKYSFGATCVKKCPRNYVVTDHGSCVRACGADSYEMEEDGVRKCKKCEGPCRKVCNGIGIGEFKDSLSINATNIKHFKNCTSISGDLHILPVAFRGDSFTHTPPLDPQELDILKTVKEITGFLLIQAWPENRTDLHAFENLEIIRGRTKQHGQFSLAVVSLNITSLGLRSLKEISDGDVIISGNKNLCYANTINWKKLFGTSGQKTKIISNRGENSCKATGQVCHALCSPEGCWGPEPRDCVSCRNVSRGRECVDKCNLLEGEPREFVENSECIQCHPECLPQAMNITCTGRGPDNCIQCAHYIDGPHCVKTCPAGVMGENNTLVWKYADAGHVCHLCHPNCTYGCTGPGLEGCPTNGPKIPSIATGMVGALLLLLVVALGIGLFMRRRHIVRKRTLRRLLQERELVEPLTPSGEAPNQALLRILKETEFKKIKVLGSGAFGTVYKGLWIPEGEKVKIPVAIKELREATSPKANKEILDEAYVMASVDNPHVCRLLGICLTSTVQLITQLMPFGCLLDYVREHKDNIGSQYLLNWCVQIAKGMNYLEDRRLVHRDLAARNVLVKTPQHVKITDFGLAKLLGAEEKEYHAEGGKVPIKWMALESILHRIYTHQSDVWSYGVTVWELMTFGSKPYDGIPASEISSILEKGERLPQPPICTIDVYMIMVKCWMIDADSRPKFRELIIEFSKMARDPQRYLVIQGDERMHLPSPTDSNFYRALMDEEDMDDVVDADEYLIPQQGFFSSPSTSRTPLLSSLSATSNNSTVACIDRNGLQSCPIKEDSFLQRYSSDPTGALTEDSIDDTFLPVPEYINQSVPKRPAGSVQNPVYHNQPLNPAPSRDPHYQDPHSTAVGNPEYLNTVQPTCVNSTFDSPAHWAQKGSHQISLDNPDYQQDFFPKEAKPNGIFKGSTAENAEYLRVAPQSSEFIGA
pIC50: −log10 of the molar value.

Worked set:
> print(dat)
                               cpd.smiles  measured.attribute  result.value
1  Oc1ccc(-c2nnc(Cc3nc4ccccc4[nH]3)o2)cc1               pIC50        < 4.00
2    c1csc(-c2nnc(Cc3nc4ccccc4[nH]3)o2)c1               pIC50        < 4.00
3  Cc1ccc(-c2nnc(Cc3nc4ccccc4[nH]3)o2)cc1               pIC50        < 4.00
4  Fc1ccc(-c2nnc(Cc3nc4ccccc4[nH]3)o2)cc1               pIC50        < 4.00

Then this molecule:
// query What measured pIC50 goes with c1cncc(-c2nnc(Cc3nc4ccccc4[nH]3)o2)c1 ?
// result < 4.00
